molecular target: human PPARγ1 (Homo sapiens, UniProt P37231); construct: expressed in transfected cells; host or cells: HEK-293; test: in vitro PPARγ transactivation (GAL4-LBD luciferase reporter in HEK-293 cells); type: cell-based; details: 50 μM
measured.attribute: PPARγ luciferase fold activation relative to untreated cells

As a guide, the following entries are already answered.
CCC(C)(Oc1ccc(OCc2cc(-c3ccc(C(F)(F)F)cc3)no2)cc1)C(=O)O (stereo not shown) :: 3.6
O=C(O)C1(Cc2ccc(OCc3cc(-c4ccccc4)no3)cc2)CCCO1 (stereo not shown) :: 9.0
CCC(C)(Oc1ccc(OCCCc2cc(-c3ccccc3)no2)cc1)C(=O)O (stereo not shown) :: 9.5
O=C(O)C1(Oc2ccc(OCc3cc(-c4ccccc4)no3)cc2)CCCC1 :: 2.4
O=C(O)C1(Cc2ccc(OCc3cc(-c4ccc(C(F)(F)F)cc4)no3)cc2)CCCO1 (stereo not shown) :: 13.5

a: CCC(C)(Oc1ccc(OCc2cc(-c3ccc(OS(C)(=O)=O)cc3)no2)cc1)C(=O)O (stereo not shown)
b: CC(C)(Oc1ccc(CCCc2cc(-c3ccccc3)no2)cc1)C(=O)O
c: CCOC(=O)C1(Oc2ccc(OCc3cc(-c4ccccc4)no3)cc2)CCCC1
d: CCC(C)(Oc1ccc(OCc2cc(-c3ccccc3)no2)cc1)C(=O)O (stereo not shown)
IN: Ascending by PPARγ luciferase fold activation relative to untreated cells, please. Return value: ordered labels per request.
OUT: c, d, a, b

* * *

molecular target: human PPARα (Homo sapiens, UniProt Q07869); construct: expressed in transfected cells; host or cells: HEK-293; experiment: in vitro PPARα transactivation (GAL4-LBD luciferase reporter in HEK-293 cells); type: cell-based; conditions: 10 μM
measured.attribute: PPARα luciferase fold activation relative to untreated cells

CCC(C)(Oc1ccc(OCc2cc(-c3ccccc3)no2)cc1)C(=O)O (stereo not shown) :: 2.6

1: CCC(C)(Oc1ccc(OCCCc2cc(-c3ccccc3)no2)cc1)C(=O)O (stereo not shown)
2: O=C(O)C1(Oc2ccc(OCc3cc(-c4ccccc4)no3)cc2)CCCC1
IN: Input pair: 1 , 2 . Output: entry with lower PPARα luciferase fold activation relative to untreated cells. Write down the label of the entry you select.
OUT: 2
(2: 1.2, 1: 5.7)

A: O=C(O)C1(Cc2ccc(OCc3cc(-c4ccc(C(F)(F)F)cc4)no3)cc2)CCCO1 (stereo not shown)
B: CCOC(=O)C1(Oc2ccc(OCc3cc(-c4ccccc4)no3)cc2)CCCC1
IN: // max by PPARα luciferase fold activation relative to untreated cells over [ A , B ] Write down the label of the entry you select.
OUT: A

* * *

Target: human PPARγ1 (Homo sapiens)
Construct: expressed in transfected cells; host or cells: HEK-293
Sequence (P37231 238-503 limits assumed): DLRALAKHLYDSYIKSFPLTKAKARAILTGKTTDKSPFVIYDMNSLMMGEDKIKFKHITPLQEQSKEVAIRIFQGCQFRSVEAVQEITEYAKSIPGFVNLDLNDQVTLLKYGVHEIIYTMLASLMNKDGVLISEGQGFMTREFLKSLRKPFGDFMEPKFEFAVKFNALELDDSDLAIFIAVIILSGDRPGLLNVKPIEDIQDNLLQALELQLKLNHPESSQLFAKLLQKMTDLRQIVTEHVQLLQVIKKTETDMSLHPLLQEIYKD
Assay: in vitro PPARγ transactivation (GAL4-LBD luciferase reporter in HEK-293 cells)
Format: cell-based
Settings: 10 μM
Experimental: The following procedure was used for in vitro determination of PPARα, γ and δ transactivation. The ligand binding domain of human PPARγ1, PPARα or PPARδ was fused to the C-terminal end of DNA binding domain of yeast transcription factor GAL4 in eukaryotic expression vector. […] The cells were lysed and the luciferase activity was measured using the LucLite kit in Top Count (Packard). Luciferase activity was expressed as fold activation relative to untreated cells in the same experiment.
measured.attribute: PPARγ luciferase fold activation relative to untreated cells

As a guide, the following entries are already answered.
O=C(O)C1(Cc2ccc(OCc3cc(-c4ccccc4)no3)cc2)CCCO1 (stereo not shown) :: 3.9
CC(C)(Oc1ccc(CCCc2cc(-c3ccccc3)no2)cc1)C(=O)O :: 2.8
CCC(C)(Oc1ccc(OCc2cc(-c3ccc(OS(C)(=O)=O)cc3)no2)cc1)C(=O)O (stereo not shown) :: 1.2
CCC(C)(Oc1ccc(OCc2cc(-c3ccccc3)no2)cc1)C(=O)O (stereo not shown) :: 1.2
CC[C@@](C)(Oc1ccc(OCc2cc(-c3ccc(OS(C)(=O)=O)cc3)no2)cc1)C(=O)O :: 1.0

A: CCC(C)(Oc1ccc(OCc2cc(-c3ccc(C(F)(F)F)cc3)no2)cc1)C(=O)O (stereo not shown)
B: O=C(O)C1(Oc2ccc(OCc3cc(-c4ccccc4)no3)cc2)CCCC1
IN: Input pair: A , B . Output: entry with lower PPARγ luciferase fold activation relative to untreated cells. Write down the label of the entry you select.
OUT: B
(B: 0.9, A: 2.7)

a: CCOC(=O)C1(Oc2ccc(OCc3cc(-c4ccccc4)no3)cc2)CCCC1
b: CCC(C)(Oc1ccc(OCCCc2cc(-c3ccccc3)no2)cc1)C(=O)O (stereo not shown)
IN: // max by PPARγ luciferase fold activation relative to untreated cells over [ a , b ] Write down the label of the entry you select.
OUT: b
(b: 3.5, a: 2.4)

* * *

Target: human PPARα (Homo sapiens, UniProt Q07869)
Construct: expressed in transfected cells; host or cells: HEK-293
Sequence (Q07869 239-466 limits assumed): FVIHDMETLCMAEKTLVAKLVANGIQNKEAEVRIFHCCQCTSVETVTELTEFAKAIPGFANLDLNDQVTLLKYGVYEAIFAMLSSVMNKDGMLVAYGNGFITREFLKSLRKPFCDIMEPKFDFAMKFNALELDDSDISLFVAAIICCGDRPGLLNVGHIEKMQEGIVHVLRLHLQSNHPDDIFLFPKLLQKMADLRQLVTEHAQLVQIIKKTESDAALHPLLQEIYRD
Assay: in vitro PPARα transactivation (GAL4-LBD luciferase reporter in HEK-293 cells)
Type: cell-based
Settings: 1 μM
measured.attribute: PPARα luciferase fold activation relative to untreated cells

As a guide, the following entries are already answered.
CC[C@@](C)(Oc1ccc(OCc2cc(-c3ccc(OS(C)(=O)=O)cc3)no2)cc1)C(=O)O :: 1.8
CCC(C)(Oc1ccc(OCc2cc(-c3ccccc3)no2)cc1)C(=O)O (stereo not shown) :: 1.3
CCC(C)(Oc1ccc(OCc2cc(-c3ccc(OS(C)(=O)=O)cc3)no2)cc1)C(=O)O (stereo not shown) :: 1.7
O=C(O)C1(Oc2ccc(OCc3cc(-c4ccccc4)no3)cc2)CCCC1 :: 0.8
CCC(C)(Oc1ccc(OCCCc2cc(-c3ccccc3)no2)cc1)C(=O)O (stereo not shown) :: 4.0

P: CCC(C)(Oc1ccc(OCc2cc(-c3ccc(C(F)(F)F)cc3)no2)cc1)C(=O)O (stereo not shown)
Q: CC(C)(Oc1ccc(CCCc2cc(-c3ccccc3)no2)cc1)C(=O)O
IN: // max by PPARα luciferase fold activation relative to untreated cells over [ P , Q ] Write down the label of the entry you select.
OUT: P
(P: 4.1, Q: 1.5)

P: O=C(O)C1(Cc2ccc(OCc3cc(-c4ccc(C(F)(F)F)cc4)no3)cc2)CCCO1 (stereo not shown)
Q: CCOC(=O)C1(Oc2ccc(OCc3cc(-c4ccccc4)no3)cc2)CCCC1
IN: Input pair: P , Q . Output: entry with lower PPARα luciferase fold activation relative to untreated cells. Write down the label of the entry you select.
OUT: Q

* * *

molecular target: human PPARγ1 (Homo sapiens, UniProt P37231); construct: expressed in transfected cells; host or cells: HEK-293; experiment: in vitro PPARγ transactivation (GAL4-LBD luciferase reporter in HEK-293 cells); type: cell-based; conditions: 1 μM
measured.attribute: PPARγ luciferase fold activation relative to untreated cells

As a guide, the following entries are already answered.
O=C(O)C1(Cc2ccc(OCc3cc(-c4ccccc4)no3)cc2)CCCO1 (stereo not shown) :: 1.8
CCC(C)(Oc1ccc(OCc2cc(-c3ccc(OS(C)(=O)=O)cc3)no2)cc1)C(=O)O (stereo not shown) :: 0.9
CCC(C)(Oc1ccc(OCCCc2cc(-c3ccccc3)no2)cc1)C(=O)O (stereo not shown) :: 0.9
O=C(O)C1(Cc2ccc(OCc3cc(-c4ccc(C(F)(F)F)cc4)no3)cc2)CCCO1 (stereo not shown) :: 4.3
CC(C)(Oc1ccc(CCCc2cc(-c3ccccc3)no2)cc1)C(=O)O :: 2.0
CCOC(=O)C1(Oc2ccc(OCc3cc(-c4ccccc4)no3)cc2)CCCC1 :: 1.4
CC[C@@](C)(Oc1ccc(OCc2cc(-c3ccc(OS(C)(=O)=O)cc3)no2)cc1)C(=O)O :: 0.1

A: O=C(O)C1(Oc2ccc(OCc3cc(-c4ccccc4)no3)cc2)CCCC1
B: CCC(C)(Oc1ccc(OCc2cc(-c3ccc(C(F)(F)F)cc3)no2)cc1)C(=O)O (stereo not shown)
C: CCC(C)(Oc1ccc(OCc2cc(-c3ccccc3)no2)cc1)C(=O)O (stereo not shown)
IN: Please list the entries, largest PPARγ luciferase fold activation relative to untreated cells first. Return value: ordered labels per request.
OUT: B, A, C
